Biological target: PmSiaT (Proteus mirabilis)
Construct: made in house
Sequence (B4EZY7 whole entry): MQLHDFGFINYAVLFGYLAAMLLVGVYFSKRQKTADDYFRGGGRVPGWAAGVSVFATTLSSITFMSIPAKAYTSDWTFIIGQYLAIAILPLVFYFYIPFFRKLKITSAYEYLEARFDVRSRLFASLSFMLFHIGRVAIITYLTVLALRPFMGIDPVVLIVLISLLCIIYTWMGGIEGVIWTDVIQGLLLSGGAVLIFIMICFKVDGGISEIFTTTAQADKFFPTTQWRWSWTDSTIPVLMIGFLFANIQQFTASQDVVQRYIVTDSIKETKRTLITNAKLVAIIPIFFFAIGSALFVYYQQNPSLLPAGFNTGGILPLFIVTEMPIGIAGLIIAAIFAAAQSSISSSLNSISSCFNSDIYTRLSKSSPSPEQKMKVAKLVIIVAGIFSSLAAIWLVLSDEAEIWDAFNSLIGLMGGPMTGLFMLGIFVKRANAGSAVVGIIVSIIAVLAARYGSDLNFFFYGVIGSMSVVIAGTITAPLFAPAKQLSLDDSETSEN
Assay: nanoDSF thermal shift assay, PmSiaT
Assay type: binding
Conditions: PmSiaT, experiment 1, vs Neu5Ac; read-out: ΔTm 1
measurementType: ΔTm (°C)
Enter your answer as a number in °C; do not include the unit.

Examples with their reported ΔTm follow.
{"columns": ["compound", "testedOn", "quantityUnit", "ΔTm"],
 "data": [
  ["CC(=O)NC1C(O)CC(O)(C(=O)O)OC1C(O)C(O)CI (stereo not shown)", "PmSiaT (Proteus mirabilis)", "°C", -2.1],
  ["CC(=O)NC1C(OCc2ccc(C#N)cc2)CC(O)(C(=O)O)OC1C(O)C(O)CO (stereo not shown)", "PmSiaT (Proteus mirabilis)", "°C", 6.3],
  ["CC(=O)NC1C(OCc2ccc(F)cc2)CC(O)(C(=O)O)OC1C(O)C(O)CO (stereo not shown)", "PmSiaT (Proteus mirabilis)", "°C", 4.2],
  ["CC(=O)NC1C(OCc2cc(Br)cc(Br)c2)CC(O)(C(=O)O)OC1C(O)C(O)CO (stereo not shown)", "PmSiaT (Proteus mirabilis)", "°C", 15]
]}

Request: Reported ΔTm, compound CC(C)C(=O)NC1C(O)CC(O)(C(=O)O)OC1C(O)C(O)CO (stereo not shown) : ____
Result: -1.9

Request: I have this compound here, CC(=O)NC1C(O)CC(O)(C(=O)O)OC1C(O)C(O)CBr (stereo not shown) , and I need its recorded ΔTm.
Result: -1.7

Request: Can you share its ΔTm? I mean this compound: CSCC(O)C(O)C1OC(O)(C(=O)O)CC(O)C1NC(C)=O (stereo not shown)
Result: -3.1
